- System: Escherichia coli TOP10
- Procedure text: shrunken log2 fold change of peptide-encoding DNA abundance (4.5 h post-induction vs induction); higher = less antimicrobial activity (less host growth inhibition)
- Experimental parameters: time post-induction: 4.5 h; library: site-saturation at positions 5, 18, 19, 20
Reported metric: shrunken log2 fold change
Answers are plain numbers.

Hey, quick one: what's shrunken log2 fold change for each of these?
1. RRIRYRPPRLPRPRPRPCAVPRP
2. RRIRARPPRLPRPRPRPYVNPRP
3. RRIRRRPPRLPRPRPRPGWQPRP
4. RRIRFRPPRLPRPRPRPCRNPRP
5. RRIRVRPPRLPRPRPRPVRLPRP
6. RRIRFRPPRLPRPRPRPFCDPRP
7. RRIRWRPPRLPRPRPRPQHLPRP
8. RRIRLRPPRLPRPRPRPDSYPRP

1: -0.269; 2: -0.235; 3: 0.381; 4: -0.0376; 5: 0.44; 6: -0.352; 7: -0.678; 8: 0.00388

====

- System: Escherichia coli TOP10
- Procedure text: shrunken log2 fold change of peptide-encoding DNA abundance (4.5 h post-induction vs induction); higher = less antimicrobial activity (less host growth inhibition)
- Experimental parameters: time post-induction: 4.5 h; library: site-saturation at positions 5, 18, 19, 20
Reported metric: shrunken log2 fold change
Answers are plain numbers.

Use these answered entries as a reference point.
[[record]]
macromolecule_sequence = "RRIRNRPPRLPRPRPRPKYGPRP"
test_target = "Escherichia coli TOP10"
value_observed = -0.174

[[record]]
macromolecule_sequence = "RRIRKRPPRLPRPRPRPQEEPRP"
test_target = "Escherichia coli TOP10"
value_observed = 0.0428

[[record]]
macromolecule_sequence = "RRIRKRPPRLPRPRPRPNRLPRP"
test_target = "Escherichia coli TOP10"
value_observed = 0.497

[[record]]
macromolecule_sequence = "RRIRSRPPRLPRPRPRPREVPRP"
test_target = "Escherichia coli TOP10"
value_observed = -0.0353

[[record]]
macromolecule_sequence = "RRIRGRPPRLPRPRPRPCVLPRP"
test_target = "Escherichia coli TOP10"
value_observed = 0.158


# return shrunken log2 fold change for each item in the list
1. RRIRQRPPRLPRPRPRPRFEPRP
2. RRIRWRPPRLPRPRPRPKKAPRP
3. RRIRPRPPRLPRPRPRPCKHPRP

1. 0.0165
2. 0.149
3. -0.131

# map each sequence to its shrunken log2 fold change
1. RRIRGRPPRLPRPRPRPEIWPRP
2. RRIRNRPPRLPRPRPRPDDWPRP
3. RRIRRRPPRLPRPRPRPSGAPRP
4. RRIRARPPRLPRPRPRPYVFPRP
5. RRIRGRPPRLPRPRPRPYRTPRP
6. RRIRRRPPRLPRPRPRPHDIPRP
7. RRIRPRPPRLPRPRPRPQIQPRP

1: 1.34; 2: 0.221; 3: 0.536; 4: -0.245; 5: -0.108; 6: -0.127; 7: -0.286

====

- System: Escherichia coli TOP10
- Procedure text: shrunken log2 fold change of peptide-encoding DNA abundance (4.5 h post-induction vs induction); higher = less antimicrobial activity (less host growth inhibition)
- Experimental parameters: time post-induction: 4.5 h; library: site-saturation at positions 5, 18, 19, 20
Would you mind sorting the entries by shrunken log2 fold change according to these classes? range A = under -0.1, range B = from -0.1 up to 0.3, range C = 0.3 and over

Known results for sequences:
[[record]]
macromolecule_sequence = "RRIRMRPPRLPRPRPRPMEQPRP"
answer_label = "range C"

[[record]]
macromolecule_sequence = "RRIRMRPPRLPRPRPRPRCGPRP"
answer_label = "range C"

[[record]]
macromolecule_sequence = "RRIRKRPPRLPRPRPRPPCSPRP"
answer_label = "range B"

[[record]]
macromolecule_sequence = "RRIRVRPPRLPRPRPRPHLEPRP"
answer_label = "range A"

[[record]]
macromolecule_sequence = "RRIRPRPPRLPRPRPRPLRTPRP"
answer_label = "range C"

[[record]]
macromolecule_sequence = "RRIRSRPPRLPRPRPRPMKSPRP"
answer_label = "range C"

[[record]]
macromolecule_sequence = "RRIRPRPPRLPRPRPRPPCSPRP"
answer_label = "range A"

[[record]]
macromolecule_sequence = "RRIRLRPPRLPRPRPRPFHHPRP"
answer_label = "range A"

[[record]]
macromolecule_sequence = "RRIRNRPPRLPRPRPRPDWRPRP"
answer_label = "range A"

[[record]]
macromolecule_sequence = "RRIRQRPPRLPRPRPRPIDNPRP"
answer_label = "range A"


Please report the category associated with RRIRKRPPRLPRPRPRPDDQPRP , nothing else.
range B

Form field 'band' for RRIRKRPPRLPRPRPRPLAFPRP
range B

Category lookup for the sequence RRIRPRPPRLPRPRPRPFIPPRP
range A

Which of the defined bands does the recorded shrunken log2 fold change of RRIRKRPPRLPRPRPRPTCNPRP sit within?
range B

Bin this entry: RRIRERPPRLPRPRPRPVKTPRP
range B

====

- System: Escherichia coli TOP10
- Procedure text: shrunken log2 fold change of peptide-encoding DNA abundance (4.5 h post-induction vs induction); higher = less antimicrobial activity (less host growth inhibition)
- Experimental parameters: time post-induction: 4.5 h; library: site-saturation at positions 5, 18, 19, 20
I'd appreciate it if you could supply shrunken log2 fold change values for the items below.
One number for each entry.

Record excerpt, results attached:
[[record]]
macromolecule_sequence = "RRIRFRPPRLPRPRPRPWQQPRP"
value_observed = -0.104

[[record]]
macromolecule_sequence = "RRIRFRPPRLPRPRPRPVHMPRP"
value_observed = -0.0472

[[record]]
macromolecule_sequence = "RRIRVRPPRLPRPRPRPLLDPRP"
value_observed = 0.157

[[record]]
macromolecule_sequence = "RRIRWRPPRLPRPRPRPTMFPRP"
value_observed = 0.0589

[[record]]
macromolecule_sequence = "RRIRNRPPRLPRPRPRPNALPRP"
value_observed = -0.134


Go through the items and report each one's shrunken log2 fold change.
1. RRIRGRPPRLPRPRPRPRFWPRP
2. RRIRYRPPRLPRPRPRPCFVPRP
3. RRIRFRPPRLPRPRPRPAANPRP
4. RRIRTRPPRLPRPRPRPEVHPRP
5. RRIRLRPPRLPRPRPRPWGGPRP

[0.943, -1.09, 0.22, 0.00869, 1.94]

Could you tell me shrunken log2 fold change for each of these sequences? They are listed below.
1. RRIRYRPPRLPRPRPRPKVGPRP
2. RRIRQRPPRLPRPRPRPQFKPRP
3. RRIRLRPPRLPRPRPRPFSRPRP
4. RRIRKRPPRLPRPRPRPQFEPRP
5. RRIRERPPRLPRPRPRPEVFPRP

[0.0316, -0.0321, -0.199, 0.177, 0.0133]

====

- System: Escherichia coli TOP10;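 also: peptides expressed intracellularly from a pBAD plasmid library in pooled LB shake-flask culture, induced with 0.3% L-arabinose, DNA abundance read by NGS, three biological replicates, DESeq2 with apeglm shrinkage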
- Procedure text: shrunken log2 fold change of peptide-encoding DNA abundance (4.5 h post-induction vs induction); higher = less antimicrobial activity (less host growth inhibition)
- Experimental parameters: time post-induction: 4.5 h; library: site-saturation at positions 5, 18, 19, 20
Reported metric: shrunken log2 fold change
Answers are plain numbers.

[[record]]
macromolecule_sequence = "RRIRSRPPRLPRPRPRPDVDPRP"
reported_metric = "shrunken log2 fold change"
value_observed = 0.0112

[[record]]
macromolecule_sequence = "RRIRERPPRLPRPRPRPDPKPRP"
reported_metric = "shrunken log2 fold change"
value_observed = 0.00358

[[record]]
macromolecule_sequence = "RRIRIRPPRLPRPRPRPTMRPRP"
reported_metric = "shrunken log2 fold change"
value_observed = 0.553

[[record]]
macromolecule_sequence = "RRIRFRPPRLPRPRPRPKWTPRP"
reported_metric = "shrunken log2 fold change"
value_observed = -0.196

[[record]]
macromolecule_sequence = "RRIRDRPPRLPRPRPRPCINPRP"
reported_metric = "shrunken log2 fold change"
value_observed = 0.224


Respectfully, I request shrunken log2 fold change for each entry included below.
1. RRIRCRPPRLPRPRPRPKSEPRP
2. RRIRYRPPRLPRPRPRPLHNPRP
3. RRIRSRPPRLPRPRPRPTKYPRP
4. RRIRIRPPRLPRPRPRPRWKPRP
5. RRIRDRPPRLPRPRPRPKYRPRP

-0.0877
-0.507
-0.52
0.0818
-0.0164

Items follow; give shrunken log2 fold change for each.
1. RRIRHRPPRLPRPRPRPTGIPRP
2. RRIRRRPPRLPRPRPRPNTEPRP
3. RRIRGRPPRLPRPRPRPTHHPRP
4. RRIRCRPPRLPRPRPRPPVDPRP
5. RRIRNRPPRLPRPRPRPNSVPRP
6. RRIRERPPRLPRPRPRPENDPRP

-0.0208
0.119
0.413
0.787
-0.0503
-0.0725

For each of the sequences below, note its shrunken log2 fold change.
1. RRIRWRPPRLPRPRPRPSKFPRP
2. RRIRDRPPRLPRPRPRPAFFPRP
3. RRIRPRPPRLPRPRPRPPHPPRP

-0.0435
0.342
0.292
